- Subject Of Test: T1, CD70 on cells (CHO-CD70, JVM-3, U266, Raji, THP-1, T cells) (human, UniProt P32970 1-193)
- T1 construct: whole, on cells; also called cell-surface CD70
- T1 sequence (looked up): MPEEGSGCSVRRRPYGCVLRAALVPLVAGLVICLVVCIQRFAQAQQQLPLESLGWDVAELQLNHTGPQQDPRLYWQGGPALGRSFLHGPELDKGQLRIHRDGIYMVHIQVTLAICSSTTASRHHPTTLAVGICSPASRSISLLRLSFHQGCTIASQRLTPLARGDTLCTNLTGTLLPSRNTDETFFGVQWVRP
- Experimental Details: on JVM-3 cells
Value Kind: cell binding
Please state the value as a number alone, without comment.

Inquiry: Data request, read-out cell binding, for 13G6 (antibody, V domains shown, alloy mouse hybridoma antibody; also called 13G6E8) VH: QVQLVESGGGVVQPGKSLRLSCAASGFTFSNYGIHWVRQAPGKGLEWVAVIWYDGSYKYYADSVKGRFTISRDNSKNTLYLQMNSLRAEDTALYYCARDTVDTYGSFDYWGQGTLVTVSS VL: DIQLTQSPSFLSASVGDRVTITGRASQGISSYLAWYQQKPGKAPNLLIYAASTLQSGVPSRFSGSGSGTEFTLTISSLQPEDFATYYCQQHNRYPITFGQGTRLEIK
Reply text: 479000

Values were extracted from patent US20240252641A1.
